The values you see were collected from PubChem BioAssay AID651886.

- Tested on: VEEV TC-83 infected cells, virus titer reduction
- test-method-notes: Secondary screen, VEEV TC 83 strain infected cells, log virus titer change, 5 µm (AID 651886)
- measurement-context: at 5 µM
The source made the active and inactive calls. How the calls were made is not given here.
Outcomes: active, inactive

>>> print(df.to_string())
                                      smiles  label_value
 0  CCN1CCN(Cc2nc3ccc([N+](=O)[O-])cc3c(=O)n2-c2ccccc2F)CC1       active
 1  CN1CCN(Cc2nc3ccc([N+](=O)[O-])cc3c(=O)n2-c2ccccc2F)CC1       active
 2  CCN1CCN(Cc2nc3ccc(C#N)cc3c(=O)n2-c2ccccc2)CC1       active
 3  O=c1c2cc([N+](=O)[O-])ccc2nc(CN2CCNCC2)n1-c1ccccc1       active
 4  O=c1c2cc([N+](=O)[O-])ccc2nc(CN2CCCCC2)n1-c1ccccc1F     inactive
 5  CCN1CCN(Cc2nc3ccc([N+](=O)[O-])cc3c(=O)n2-c2cccc(F)c2)CC1       active
 6  CCN1CCN(Cc2nc3ccc([N+](=O)[O-])cc3c(=O)n2-c2ccccc2)CC1       active
 7  CCN1CCN(Cc2nc3ccc(I)cc3c(=O)n2-c2ccccc2)CC1     inactive
 8  CCN1CCN(Cc2nc3ccc([N+](=O)[O-])cc3c(=O)n2-c2ccc(F)cc2)CC1       active
 9  CN1CCN(C)C(=Nc2ccc([N+](=O)[O-])cc2C(=O)Nc2ccccc2F)C1       active
10  O=c1c2cc([N+](=O)[O-])ccc2nc(CN2CCNCC2)n1-c1ccccc1F       active
11  CN1CCN(C)C(=Nc2ccc(C#N)cc2C(=O)Nc2cccc(F)c2)C1       active
12  CN1CCN(C)C(=Nc2ccc([N+](=O)[O-])cc2C(=O)Nc2ccccc2)C1       active
13  COc1ccc(NC(=O)c2cc([N+](=O)[O-])ccc2N=C2CN(C)CCN2C)cc1       active
14  CCN1CCN(C)CC1=Nc1ccc([N+](=O)[O-])cc1C(=O)Nc1ccccc1       active
15  CN1CCN(C)C(=Nc2ccc(C#N)cc2C(=O)Nc2ccccc2)C1       active
